- experiment.summary: Quantitative highthroughput screen to assess conditional lethalithy of SEM cells grown in RPMI1640 with dialyzed fetal bovine serum (RPMI+ds) (AID 1963884); also: nearly all actives have a fitted effect of over 35% in size
- test.context: SEM B-ALL cells, RPMI+dialyzed FBS, CellTiter-Glo viability, 48 h; series mostly up to 45.8 µM
Records with an inconclusive call do not appear. Active and inactive are the calls of the source. Calls follow the shape of the dose curve; as a rule, active = well fitted cell-killing curve with a large enough effect; inconclusive = small, poorly fitted or top-dose-only effect, or effect the other way; inactive = no such curve, though single readings can be large or run the other way.
Respond only with the outcome that fits, drawn from active, inactive

In: What did the test return for O=C1CCc2cc(OCCCCc3nnnn3C3CCCCC3)ccc2N1 ?
Out: inactive

In: Returns: the outcome recorded for C[C@](N)(Cc1ccc(O)c(O)c1)C(=O)O in this assay.
Out: active

In: Lab log entry: C=C1CCC2[C@](C)(CO)C(O)CC[C@]2(C)C1CC=C1C(=O)OCC1O (stereo not given in full) — outcome as called in the assay?
Out: inactive

In: What outcome does the record of this test show for Cc1ccc(C(N)=O)cc1Nc1nccc(-c2cn(C(C)C)c3cnccc23)n1 ?
Out: active

In: Each compound tested received a call. Report the one for CC(C=CC1=C(C)CCCC1(C)C)=CC=CC(C)=CC(=O)Nc1ccc(O)cc1 .
Out: active

In: Record request — test call for OCCCNc1cc(-c2ccnc(Nc3cccc(Cl)c3)n2)ccn1
Out: active

In: How was CC1=C(C(=O)O)N2C(=O)[C@@H](NC(=O)[C@H](N)C3=CCC=CC3)[C@H]2SC1 classified in this test?
Out: inactive

In: Check the results log: what was the call for CCc1c(O)cc(O)c(C(=O)c2ccc(OCCN3CCOCC3)c(OC)c2)c1CC(=O)N(CCOC)CCOC ?
Out: active

* * *

- experiment.summary: Quantitative highthroughput screen to assess conditional lethalithy of SEM cells grown in Human Plasma-Like Medium with dialyzed fetal bovine serum (HPLM+ds) (AID 1963882); also: nearly all actives have a fitted effect of over 35% in size; also: potency is read from the fitted curve at half-maximal effect
- test.context: SEM B-ALL cells in HPLM+ds, CellTiter-Glo viability, 48 h; series mostly up to 45.8 µM
Inconclusive results are not listed. Activity calls are given as the source filed them. The call rests on the fitted dose curve; in most records, active means well fitted cell-killing curve with a large enough effect; inconclusive means small, poorly fitted or top-dose-only effect, or effect the other way; inactive means no such curve, though single readings can be large or run the other way.
measured.parameter: Potency

Record excerpt, results attached:
{"compound": "NC(=O)OCC(COC(N)=O)c1ccccc1", "Potency": "inactive"}
{"compound": "N#Cc1ccnc(N2C(=O)CC[C@H]2C(=O)N(c2cncc(F)c2)[C@H](C(=O)NC2CC(F)(F)C2)c2ccccc2Cl)c1", "Potency": "3.31 µM (active)"}
{"compound": "COc1cc(O)c2c(c1)C(=O)c1cc(C)cc(O)c1C2=O", "Potency": "6.45 µM (active)"}
{"compound": "O=C(Nc1ccccc1-c1cn2c(CN3CCNCC3)csc2n1)c1cnc2ccccc2n1", "Potency": "18.7 µM (active)"}

Quick one: give me Potency for each item below, same order please.
1. CS(=O)(=O)N(Cc1ccco1)CC(O)Cn1c2ccccc2c2ccccc21 (stereo not given)
2. COc1c(Cl)cc2c([nH]c3cnccc32)c1NC(=O)c1cccnc1C
3. COc1cc(C(=O)N2CCC(N3CCN(C)CC3)CC2)ccc1Nc1ncc2c(n1)N(C)c1ccccc1C(=O)N2C
4. Cc1c(CCOc2ccc(C(=O)O)cc2)c2cc(Cl)ccc2n1C(c1ccccc1)c1ccccc1
5. O=C(O)c1cccc(-c2noc(-c3ccccc3F)n2)c1
6. O=C(C1CC1)N1CC[C@@H](Cn2c(-c3ccc(-c4ccc5occc5c4)cc3)nc3cnccc32)C1

Out:
1: 18.7 µM (active); 2: inactive; 3: 3.72 µM (active); 4: inactive; 5: inactive; 6: inactive
